# measured target: Human Cav3.1 (Homo sapiens (Human))
# experiment summary: Human Cav3.1 calcium channel patch clamp assay (SyncroPatch 384PE, HEK-293 natClytin/TASK1+Cav3.1 cell line)
# Type: cell-based
# cond: voltage dependent block (VDB); read-out: Cav3.1 (VDB) IC50
# Experimental: Pulse generation and data collection were performed with PatchController384 V1.3.0 and DataController384 V1.2.1 (Nanion Technologies). […] Current was recorded in whole cell configuration from a population of cells. […] Currents were recorded at room temperature. […] Current amplitude (pA) was measured in the peak 1 and 2. The average of last 3 sweeps of each liquid period (vehicle, compound under investigation, full block) was calculated. […]
quantity kind: IC50 (nM)

[P] O=C(Nc1cc(F)cc(Cl)c1)C1CCC2(CC1)CN(CC(F)(F)C1CCCC1)C2
[Q] O=C(CN1CC2(CCC(C(=O)Nc3ccc(F)c(C(F)F)c3)CC2)C1)NC1(C(F)(F)F)CC1
[R] Cc1cc(NC(=O)C2CCC3(CC2)CN(CC(=O)NC(C)(C)C)C3)nn1-c1ccccc1
[S] COc1cc(NC(=O)C2CCC3(CC2)CN(CC(=O)NC(C)(C)C)C3)ccc1Cl
Reorder the list above by recorded IC50 in ascending order. A ranking is expressed here by listing the labels in the requested order.
S, Q, P, R

###

# measured target: Human Cav3.1 (Homo sapiens (Human))
# experiment summary: Human Cav3.1 calcium channel patch clamp assay (SyncroPatch 384PE, HEK-293 natClytin/TASK1+Cav3.1 cell line)
# Type: cell-based
# cond: voltage dependent block (VDB); read-out: Cav3.1 (VDB) IC50
quantity kind: IC50 (nM)

Answered cases to consult:
> print(dat)
                                chem.smiles                      measured.target  quantity.kind  units   val
1  CC(C)(C)S(=O)(=O)CCN1CC2(CCC(C(=O)Nc3cc(F)cc(C(F)F)c3)CC2)C1  Human Cav3.1 (Homo sapiens (Human))           IC50     nM   855
2  COc1cc(F)cc(NC(=O)C2CCC3(CC2)CN(CC2(C#N)CCC(F)(F)CC2)C3)c1  Human Cav3.1 (Homo sapiens (Human))           IC50     nM   550
3  COc1cc(F)cc(NC(=O)C2CCC3(CC2)CN(CC2(C#N)CC2)C3)c1  Human Cav3.1 (Homo sapiens (Human))           IC50     nM  2270
4  O=C(Nc1cccc(Cl)c1)C1CCC2(CC1)CN(CC(F)(F)C1CCCCC1)C2  Human Cav3.1 (Homo sapiens (Human))           IC50     nM   488
5  O=C(Nc1cc(F)cc(Cl)c1)C1CCC2(CC1)CN(Cc1ccc(F)cc1)C2  Human Cav3.1 (Homo sapiens (Human))           IC50     nM   612

[I] CC(C)(C)NC(=O)CN1CC2(CCC(C(=O)Nc3cc(F)cc(C(F)F)c3)CC2)C1
[II] CN(CCN1CC2(CCC(C(=O)Nc3cc(F)cc(C(F)F)c3)CC2)C1)C(=O)C1(C)CC1
Out of I and II , name the one with the higher IC50. Write down the label of the entry you select.
II

###

# measured target: Human Cav3.1 (Homo sapiens (Human), UniProt O43497)
# Sequence (O43497 whole entry): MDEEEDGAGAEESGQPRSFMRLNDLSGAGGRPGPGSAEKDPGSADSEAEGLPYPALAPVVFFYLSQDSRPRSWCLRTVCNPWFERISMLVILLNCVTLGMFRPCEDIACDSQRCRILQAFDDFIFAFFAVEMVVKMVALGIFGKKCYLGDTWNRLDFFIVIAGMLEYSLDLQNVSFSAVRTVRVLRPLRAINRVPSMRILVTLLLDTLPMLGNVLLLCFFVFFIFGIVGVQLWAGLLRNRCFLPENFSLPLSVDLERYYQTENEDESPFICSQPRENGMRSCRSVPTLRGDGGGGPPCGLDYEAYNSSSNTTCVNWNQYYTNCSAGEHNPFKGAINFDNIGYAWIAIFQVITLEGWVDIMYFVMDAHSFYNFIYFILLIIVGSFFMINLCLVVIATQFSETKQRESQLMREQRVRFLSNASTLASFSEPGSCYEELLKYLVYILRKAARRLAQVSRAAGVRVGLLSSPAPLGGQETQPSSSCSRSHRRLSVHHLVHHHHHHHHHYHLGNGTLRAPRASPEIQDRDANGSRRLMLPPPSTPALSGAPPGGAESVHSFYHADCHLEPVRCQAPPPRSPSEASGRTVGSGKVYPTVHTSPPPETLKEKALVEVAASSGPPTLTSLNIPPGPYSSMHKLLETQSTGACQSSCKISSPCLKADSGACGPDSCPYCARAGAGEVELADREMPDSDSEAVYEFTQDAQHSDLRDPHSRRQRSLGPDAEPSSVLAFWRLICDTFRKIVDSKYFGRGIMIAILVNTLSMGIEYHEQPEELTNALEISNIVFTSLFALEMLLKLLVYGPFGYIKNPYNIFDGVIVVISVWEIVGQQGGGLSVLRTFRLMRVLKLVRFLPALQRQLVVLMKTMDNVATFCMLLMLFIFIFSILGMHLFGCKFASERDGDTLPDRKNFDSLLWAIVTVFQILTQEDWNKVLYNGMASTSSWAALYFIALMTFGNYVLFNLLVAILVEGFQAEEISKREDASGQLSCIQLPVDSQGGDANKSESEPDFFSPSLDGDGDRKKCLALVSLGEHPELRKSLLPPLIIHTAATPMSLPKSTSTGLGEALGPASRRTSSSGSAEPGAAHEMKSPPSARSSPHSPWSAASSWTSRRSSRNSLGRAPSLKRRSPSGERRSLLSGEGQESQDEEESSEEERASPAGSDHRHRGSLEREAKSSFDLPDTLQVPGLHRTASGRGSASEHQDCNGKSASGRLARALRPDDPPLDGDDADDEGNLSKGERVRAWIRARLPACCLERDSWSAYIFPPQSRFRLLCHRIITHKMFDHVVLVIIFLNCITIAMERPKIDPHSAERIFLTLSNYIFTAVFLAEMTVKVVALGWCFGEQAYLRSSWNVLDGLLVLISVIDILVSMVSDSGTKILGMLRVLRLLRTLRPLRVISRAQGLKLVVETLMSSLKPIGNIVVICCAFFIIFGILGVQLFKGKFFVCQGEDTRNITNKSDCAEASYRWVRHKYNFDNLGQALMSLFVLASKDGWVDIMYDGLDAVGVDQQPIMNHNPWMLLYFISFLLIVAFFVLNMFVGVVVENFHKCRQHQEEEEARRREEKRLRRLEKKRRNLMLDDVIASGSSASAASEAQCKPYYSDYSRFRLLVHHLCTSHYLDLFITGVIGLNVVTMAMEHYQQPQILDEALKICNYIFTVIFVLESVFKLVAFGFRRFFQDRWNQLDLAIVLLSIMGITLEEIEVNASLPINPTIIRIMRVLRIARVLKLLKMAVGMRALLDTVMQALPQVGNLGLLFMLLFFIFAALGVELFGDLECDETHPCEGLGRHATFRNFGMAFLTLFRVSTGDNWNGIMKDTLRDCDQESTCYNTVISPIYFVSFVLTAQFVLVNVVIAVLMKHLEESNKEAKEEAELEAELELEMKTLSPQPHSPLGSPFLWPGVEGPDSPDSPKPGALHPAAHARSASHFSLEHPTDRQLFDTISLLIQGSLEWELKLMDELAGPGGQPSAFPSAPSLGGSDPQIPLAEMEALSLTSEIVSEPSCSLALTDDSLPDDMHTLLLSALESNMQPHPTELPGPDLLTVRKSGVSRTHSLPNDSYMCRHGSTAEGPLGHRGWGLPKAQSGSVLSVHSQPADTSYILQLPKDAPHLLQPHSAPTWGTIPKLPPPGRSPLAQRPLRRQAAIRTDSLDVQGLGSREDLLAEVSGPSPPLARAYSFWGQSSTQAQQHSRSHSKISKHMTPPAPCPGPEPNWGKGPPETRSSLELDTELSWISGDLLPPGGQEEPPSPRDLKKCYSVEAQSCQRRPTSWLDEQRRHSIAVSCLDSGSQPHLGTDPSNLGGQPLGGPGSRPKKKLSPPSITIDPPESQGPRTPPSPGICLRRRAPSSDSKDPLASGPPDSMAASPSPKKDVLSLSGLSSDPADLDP
# experiment summary: Human Cav3.1 calcium channel patch clamp assay (SyncroPatch 384PE, HEK-293 natClytin/TASK1+Cav3.1 cell line)
# Assay type: cell-based
# cond: voltage dependent block (VDB); read-out: Cav3.1 (VDB) IC50
pIC50: −log10 of the molar value.
quantity kind: pIC50

> print(dat)
                                chem.smiles                           measured.target   val
1  CC1(C(=O)NCCN2CC3(CCC(C(=O)Nc4cc(F)cc(C(F)F)c4)CC3)C2)CC1  Human Cav3.1 (Homo sapiens (Human), UniProt O43497)  6.14
2  O=C(CN1CC2(CCC(C(=O)NC34CC5CC(CC(C5)C3)C4)CC2)C1)NC1(C(F)(F)F)CC1  Human Cav3.1 (Homo sapiens (Human), UniProt O43497)  6.39
3  O=C(Nc1cccc(Cl)c1)C1CCC2(CC1)CN(CCS(=O)(=O)c1ccccc1)C2  Human Cav3.1 (Homo sapiens (Human), UniProt O43497)  6.30
4  CC(C)(C)NC(=O)CN1CC2(CCC(C(=O)Nc3cc(Cl)cc(Cl)c3)CC2)C1  Human Cav3.1 (Homo sapiens (Human), UniProt O43497)  6.75

[I] N#CC1(CN2CC3(CCC(C(=O)Nc4cccc(Cl)c4)CC3)C2)CCCCC1
[II] CC1(C)COCCN1C(=O)CN1CC2(CCC(C(=O)Nc3cc(F)cc(C(F)F)c3)CC2)C1
Lower pIC50: I or II ? Write down the label of the entry you select.
I

###

# measured target: Human Cav3.1 (Homo sapiens (Human), UniProt O43497)
# experiment summary: Human Cav3.1 calcium channel patch clamp assay (SyncroPatch 384PE, HEK-293 natClytin/TASK1+Cav3.1 cell line)
# Assay type: cell-based
# cond: voltage dependent block (VDB); read-out: Cav3.1 (VDB) IC50
quantity kind: IC50 (nM)

> print(dat)
                                   compound                           measured.target   val
1  CC(C)(C)NC(=O)CN1CC2(CCC(CNC(=O)c3cccc(Cl)c3)CC2)C1  Human Cav3.1 (Homo sapiens (Human), UniProt O43497)   569
2  N#CC1(CN2CC3(CCC(C(=O)Nc4cc(F)cc(Cl)c4)CC3)C2)CCOC1 (centres unmarked)  Human Cav3.1 (Homo sapiens (Human), UniProt O43497)  2230
3  CC(C)(NC(=O)CN1CC2(CCC(C(=O)Nc3cccc(OC(F)(F)F)c3)CC2)C1)C(F)(F)F  Human Cav3.1 (Homo sapiens (Human), UniProt O43497)   333
4  O=C(Nc1cc(F)cc(C(F)F)c1)C1CCC2(CC1)CN(CC(F)C1CCCC1)C2 (centres unmarked)  Human Cav3.1 (Homo sapiens (Human), UniProt O43497)   645
5  O=C(CN1CC2(CCC(C(=O)Nc3ccc(Cl)c(F)c3)CC2)C1)NC1(C(F)(F)F)CC1  Human Cav3.1 (Homo sapiens (Human), UniProt O43497)  1070
6  O=C(CN1CC2(CCC(C(=O)NC34CCC(CC3)CC4)CC2)C1)NC1(C(F)(F)F)CC1  Human Cav3.1 (Homo sapiens (Human), UniProt O43497)   357
7  CC(C)(NC(=O)CN1CC2(CCC(CNC(=O)c3cccc(Cl)c3)CC2)C1)C(F)(F)F  Human Cav3.1 (Homo sapiens (Human), UniProt O43497)   435
8  O=C(Nc1cc(F)cc(C(F)F)c1)C1CCC2(CC1)CN(CC(=O)N1CCOCC13CC3)C2  Human Cav3.1 (Homo sapiens (Human), UniProt O43497)   703

[I] CC1(NC(=O)CN2CC3(CCC(C(=O)Nc4cc(F)cc(Cl)c4)CC3)C2)CCC1
[II] COc1cc(F)cc(NC(=O)C2CCC3(CC2)CN(CCS(=O)(=O)C(C)(C)C)C3)c1
Out of I and II , name the one with the higher IC50. Write down the label of the entry you select.
II

###

# measured target: Human Cav3.1 (Homo sapiens (Human))
# experiment summary: Human Cav3.1 calcium channel patch clamp assay (SyncroPatch 384PE, HEK-293 natClytin/TASK1+Cav3.1 cell line)
# Type: cell-based
# cond: voltage dependent block (VDB); read-out: Cav3.1 (VDB) IC50
quantity kind: IC50 (µM)

Answered cases to consult:
> print(dat)
                                chem.smiles  quantity.kind    val
1  CC(C)(C)OC(=O)CN1CC2(CCC(C(=O)Nc3cc(F)cc(Cl)c3)CC2)C1           IC50  0.513
2  N#CC1(CN2CC3(CCC(C(=O)NCc4cc(F)cc(Cl)c4)CC3)C2)CCCCC1           IC50  0.664
3  CCC(C)(C)NC(=O)CN1CC2(CCC(C(=O)Nc3cc(F)cc(Cl)c3)CC2)C1           IC50  0.142
4  N#CC1(CN2CC3(CCC(C(=O)Nc4cc(Cl)cc(OC(F)F)c4)CC3)C2)CC1           IC50   1.26

[a] CC(C)(C)NC(=O)CN1CC2(CCC(C(=O)Nc3cccc(OC(F)F)c3)CC2)C1
[b] N#CC1(CN2CC3(CCC(C(=O)Nc4cccc(Cl)c4)CC3)C2)CCC(F)(F)CC1
Out of a and b , name the one with the higher IC50. Write down the label of the entry you select.
b
(b: 0.706 µM, a: 0.296 µM)
